system: T1, CRBN, Q96SW2;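 note: pooled lentiviral library of zinc finger degron-EGFP fusions in mCherry-positive Jurkat cells, FACS-sorted after compound exposure, with degron abundance counted by next-generation sequencing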
T1 chain: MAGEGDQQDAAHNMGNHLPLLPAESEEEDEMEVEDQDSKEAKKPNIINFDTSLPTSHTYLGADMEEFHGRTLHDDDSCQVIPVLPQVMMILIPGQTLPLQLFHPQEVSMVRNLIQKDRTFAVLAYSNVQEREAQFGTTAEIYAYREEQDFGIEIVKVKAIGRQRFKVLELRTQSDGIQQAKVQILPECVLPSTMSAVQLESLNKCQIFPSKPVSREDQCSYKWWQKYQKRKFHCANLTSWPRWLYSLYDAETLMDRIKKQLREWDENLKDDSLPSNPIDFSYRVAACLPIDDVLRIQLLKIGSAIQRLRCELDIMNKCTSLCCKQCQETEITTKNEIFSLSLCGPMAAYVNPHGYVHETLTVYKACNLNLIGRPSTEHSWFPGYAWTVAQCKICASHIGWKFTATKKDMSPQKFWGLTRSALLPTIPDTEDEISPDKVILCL
method_notes: log2 fold change of degron read counts, EGFP-low vs EGFP+ sorted cells (limma voom), compound-induced degradation; higher = more compound-induced degradation of the degron-EGFP fusion; degrons are variants of IKZF1/3 zinc finger 2; compound dose not given here
run_conditions: Jurkat; 18 h; compound: compound 33 (diphenyl IMiD analogue)
In all, about 8,300 sequences were measured (“log2 fold change of degron read counts, EGFP-low vs EGFP+ sorted cells (limma voom), compound-induced degradation”: median about -1.1, highest 2% from about 3.2 on). Shown is part of a subset that was picked to be rich in the highest values.
Think of -0.9 as a floor: if log2 fold change of degron read counts stands on it or above, it is YES; beneath it, NO.

chain	label_class
FFCEQCGAIFTQKGNLLRHIKL [46F_47F_49E_50Q_52G_53A_54I_55F_67L_, Q9UKT9]	NO
FLCSVCGHLFTQKGNLLRHIKL [46F_47L_49S_50V_52G_53H_54L_55F_67L_, Q9UKT9]	NO
LTCNQCGFMCTQKGNLLRHIKL [46L_47T_49N_50Q_52G_53F_54M_55C_67L_, Q9UKT9]	NO
FCCDICGAHFTQKGNLLRHIKL [46F_47C_49D_50I_52G_53A_54H_55F_67L_, Q9UKT9]	YES
FRCSVCGHNFTQKGNLLRHIKL [46F_47R_49S_50V_52G_53H_54N_55F_67L_, Q9UKT9]	NO

hey, is log2 fold change of degron read counts for this one >= -0.9? FICEICGRIFTQKGNLLRHIKL [46F_47I_49E_50I_52G_53R_54I_55F_67L_, Q9UKT9]
YES

hey, is log2 fold change of degron read counts for this one >= -0.9? FNCDICGAHFTQKGNLLRHIKL [46F_47N_49D_50I_52G_53A_54H_55F_67L_, Q9UKT9]
NO

hey, is log2 fold change of degron read counts for this one >= -0.9? FICEICGHSFTQKGNLLRHIKL [46F_47I_49E_50I_52G_53H_54S_55F_67L_, Q9UKT9]
NO

hey, is log2 fold change of degron read counts for this one >= -0.9? FCCDQCGAQFTQKGNLLRHIKL [46F_47C_49D_50Q_52G_53A_54Q_55F_67L_, Q9UKT9]
NO

hey, is log2 fold change of degron read counts for this one >= -0.9? FDCNQCGRCFTQKGNLLRHIKL [46F_47D_49N_50Q_52G_53R_54C_55F_67L_, Q9UKT9]
NO
